Biological target: human vanin-1 (Homo sapiens (Human))
Assay: Human Vanin-1 Enzyme Assay 1
Format: biochemical
Conditions: 25 pM human vanin-1, 50 uM pantetheine 7-amino-4-trifluoromethylcoumarin, 30 min preincubation, 60 min
reported-endpoint: IC50 (nM)

compound-string: COc1cccc(C(=O)c2cnc(NCc3cncnc3)nc2)c1
reported-endpoint: IC50
unit-abbreviation: nM
value-observed: 81.5

[a] N#Cc1cc(Cl)cc(C(=O)c2cnc(NC3(c4cncnc4)CC3)nc2)c1
[b] N#Cc1cccc(C(=O)c2cnc(NCc3cccnn3)nc2)c1
[c] O=C(c1cnc(NCc2ccc(F)cc2)nc1)c1ccc(F)c(C(F)(F)F)c1
[d] N#Cc1cccc(C(=O)c2cnc(NCc3ccc(Cl)cc3)nc2)c1
[e] Cc1ccc2cc(C(=O)c3cnc(NCc4cccnc4)nc3)ccc2n1
Query string: // ranking: key=IC50, reverse=True Ranked list of labels, please, in the requested order.
Result string: c, e, b, d, a
(c: 1130 nM, e: 196 nM, b: 111 nM, d: 38.2 nM, a: 26 nM)

* * *

Target: human vanin-1 (Homo sapiens (Human), UniProt O95497)
Sequence (O95497 22-491): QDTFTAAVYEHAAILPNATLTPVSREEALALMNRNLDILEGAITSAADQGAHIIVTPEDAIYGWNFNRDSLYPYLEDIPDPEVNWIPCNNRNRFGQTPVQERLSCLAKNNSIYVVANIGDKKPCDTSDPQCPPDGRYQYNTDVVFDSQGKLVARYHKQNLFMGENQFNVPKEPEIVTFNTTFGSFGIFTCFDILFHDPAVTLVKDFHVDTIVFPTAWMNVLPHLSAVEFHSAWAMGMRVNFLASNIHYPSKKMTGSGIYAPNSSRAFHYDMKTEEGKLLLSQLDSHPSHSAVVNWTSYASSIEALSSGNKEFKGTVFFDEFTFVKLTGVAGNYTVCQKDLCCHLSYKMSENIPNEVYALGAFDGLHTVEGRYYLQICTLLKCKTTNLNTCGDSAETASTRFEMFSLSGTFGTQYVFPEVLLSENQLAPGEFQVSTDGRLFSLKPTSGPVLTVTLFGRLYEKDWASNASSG
Experiment: Human Vanin-1 Enzyme Assay 1
Assay type: biochemical
Details: 25 pM human vanin-1, 50 uM pantetheine 7-amino-4-trifluoromethylcoumarin, 30 min preincubation, 60 min
pIC50: −log10 of the molar value.
reported-endpoint: pIC50

compound: CC(C)(Nc1ncc(C(=O)c2ccc(F)c(F)c2)cn1)c1ccccc1 [Example 44]
reported-endpoint: pIC50
value-observed: 6.29

compound: Cc1cccc(C(=O)c2cnc(NCc3ccc(C#N)cc3)nc2)c1 [Example 42]
reported-endpoint: pIC50
value-observed: 5.97

compound: NC(=O)c1ccc(CNc2ncc(C(=O)c3ccc(F)c(F)c3)cn2)cc1 [Example 43]
reported-endpoint: pIC50
value-observed: 5.65

compound: N#Cc1cccc(C(=O)c2cnc(NC3(c4cnc(N)cn4)CC3)nc2)c1 [Example 151]
reported-endpoint: pIC50
value-observed: 7.56

compound: O=C(c1cnc(NCc2cccnc2)nc1)c1ccc2c(c1)OCCO2 [Example 98]
reported-endpoint: pIC50
value-observed: 6.99

[a] O=C(c1cnc(NCc2ccc(F)cc2)nc1)c1cc(F)cc(C(F)(F)F)c1 [Example 127]
[b] O=C(O)c1cccc(C(=O)c2cnc(NC3(c4cncnc4)CC3)nc2)c1 [Example 148]
Query string: Please let me know which one, a or b , has a lower measured pIC50 value. Respond with the label that goes with your answer.
Result string: a

[1] N#Cc1cccc(C(=O)c2cnc(NCc3ccnnc3)nc2)c1 [Example 112]
[2] N#Cc1cccc(C(=O)c2cnc(NCc3ccc(F)cc3F)nc2)c1 [Example 30]
Query string: Name the one with the greater pIC50 value, either 1 or 2 as given. Respond with the label that goes with your answer.
Result string: 2

* * *

Target: human vanin-1 (Homo sapiens (Human), UniProt O95497)
Experiment: Human Vanin-1 Enzyme Assay 1
Assay type: biochemical
Settings: 25 pM human vanin-1, 50 uM pantetheine 7-amino-4-trifluoromethylcoumarin, 30 min preincubation, 60 min
Description: Human Vanin-1 Enzyme Assay 1. The in vitro assay measures enzymatic cleavage of the fluorescently-labeled vanin substrate, pantetheine 7-amino-4-trifluoromethylcoumarin, by human vanin-1. The vanin-1 protein was prepared in-house from a construct expressing the extracellular domain of human vanin-1 (GenBank ID NM_004666) preceded N-terminally by the honey bee melittin signal peptide, a GSG linker sequence, a His6X tag and a FLAG tag. […]
reported-endpoint: IC50 (nM)

compound-string: N#Cc1cccc(C(=O)c2cnc(NCc3ccccc3)nc2)c1
value-observed: 79.7
--
compound-string: CS(=O)(=O)c1cccc(C(=O)c2ccc(NCc3cncnc3)nc2)c1
value-observed: 1440

[I] N#Cc1cc(C(=O)c2cnc(NCc3cncnc3)nc2)ccc1F
[II] N#Cc1cccc(C(=O)c2cnc(NC3(c4cncnc4)CC3)nc2)c1
Query string: Name the one with the greater IC50 value, either I or II as given. Respond with the label that goes with your answer.
Result string: I
(I: 48.4 nM, II: 4.1 nM)
